# target_desc: Macaca fascicularis PRLR (mfPRLR.mmh; SEQ ID NO:403)
# Sequence (as listed by the source): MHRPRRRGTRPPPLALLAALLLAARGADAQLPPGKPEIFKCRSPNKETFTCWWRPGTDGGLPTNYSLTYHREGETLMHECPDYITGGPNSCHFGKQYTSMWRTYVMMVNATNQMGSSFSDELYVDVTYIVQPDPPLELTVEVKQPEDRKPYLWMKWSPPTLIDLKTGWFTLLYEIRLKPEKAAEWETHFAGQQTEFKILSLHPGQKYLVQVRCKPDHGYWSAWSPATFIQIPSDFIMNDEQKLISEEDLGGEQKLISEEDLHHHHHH
# test: Surface plasmon resonance (Biacore T200), antibody-capture format
# Type: binding
# protocol_conditions: 37° C., analyte mfPRLR.mmh
Lab note - cut at 0.001 s⁻¹ for kd: 1 (yes) if strictly below, 0 (no) if not.

Here's an entry: H1H6781P: fully human anti-PRLR antibody, human IgG1 Fc; HCVR/LCVR SEQ ID NOs 50/58 (antibody, V domains shown) VH: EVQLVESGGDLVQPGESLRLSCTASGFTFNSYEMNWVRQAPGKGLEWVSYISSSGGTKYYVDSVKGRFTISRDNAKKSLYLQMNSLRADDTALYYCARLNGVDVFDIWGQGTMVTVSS VL: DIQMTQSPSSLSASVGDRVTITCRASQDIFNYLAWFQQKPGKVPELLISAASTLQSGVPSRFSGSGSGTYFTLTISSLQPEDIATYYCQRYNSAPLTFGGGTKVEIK . Is its kd below 0.001 s⁻¹? 1 (yes)

In the record for H1H6975N: anti-PRLR antibody, human IgG1 Fc form of H2M6975N of Table 1; HCVR/LCVR SEQ ID NOs 370/378 (antibody, V domains shown, human IgG1 Fc) VH: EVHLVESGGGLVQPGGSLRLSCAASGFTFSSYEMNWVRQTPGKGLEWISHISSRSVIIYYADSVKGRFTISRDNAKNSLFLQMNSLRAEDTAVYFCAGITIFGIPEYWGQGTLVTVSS VL: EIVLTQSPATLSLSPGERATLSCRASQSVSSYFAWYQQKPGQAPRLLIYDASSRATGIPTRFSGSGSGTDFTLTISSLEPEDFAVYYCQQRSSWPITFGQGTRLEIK , is kd less than 0.001 s⁻¹? 1 (yes)

I'd appreciate it if you could check whether H1H6765P: fully human anti-PRLR antibody, human IgG1 Fc; HCVR/LCVR SEQ ID NOs 18/26 (antibody, V domains shown) VH: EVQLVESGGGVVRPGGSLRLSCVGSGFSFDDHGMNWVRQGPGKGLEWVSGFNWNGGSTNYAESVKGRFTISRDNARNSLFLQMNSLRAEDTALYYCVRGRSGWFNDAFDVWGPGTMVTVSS VL: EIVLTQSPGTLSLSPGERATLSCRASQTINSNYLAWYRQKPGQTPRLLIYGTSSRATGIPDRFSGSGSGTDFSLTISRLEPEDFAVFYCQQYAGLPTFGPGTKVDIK has kd smaller than 0.001 s⁻¹. 1 (yes)

Below 0.001 s⁻¹ on kd? Entry H1H6803P: fully human anti-PRLR antibody, human IgG1 Fc; HCVR/LCVR SEQ ID NOs 226/234 (antibody, V domains shown) VH: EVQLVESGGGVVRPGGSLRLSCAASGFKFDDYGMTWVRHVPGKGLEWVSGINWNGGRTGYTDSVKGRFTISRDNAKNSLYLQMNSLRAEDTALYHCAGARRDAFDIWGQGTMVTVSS VL: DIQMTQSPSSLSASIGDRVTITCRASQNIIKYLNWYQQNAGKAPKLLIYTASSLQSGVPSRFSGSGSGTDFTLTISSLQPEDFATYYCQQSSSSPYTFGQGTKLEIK 1 (yes)

Bench note: check whether H1H6960N: anti-PRLR antibody, human IgG1 Fc form of H2M6960N of Table 1; HCVR/LCVR SEQ ID NOs 322/330 (antibody, V domains shown, human IgG1 Fc) VH: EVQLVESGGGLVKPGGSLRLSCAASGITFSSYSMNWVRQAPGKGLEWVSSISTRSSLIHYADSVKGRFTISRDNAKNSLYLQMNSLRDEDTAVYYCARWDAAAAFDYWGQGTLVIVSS VL: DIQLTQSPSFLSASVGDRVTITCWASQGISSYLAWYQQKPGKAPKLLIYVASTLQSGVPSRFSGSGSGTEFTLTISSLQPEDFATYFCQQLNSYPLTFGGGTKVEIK shows kd below 0.001 s⁻¹ 0 (no)

For H1H6966N: anti-PRLR antibody, human IgG1 Fc form of H2M6966N of Table 1; HCVR/LCVR SEQ ID NOs 338/346 (antibody, V domains shown, human IgG1 Fc) VH: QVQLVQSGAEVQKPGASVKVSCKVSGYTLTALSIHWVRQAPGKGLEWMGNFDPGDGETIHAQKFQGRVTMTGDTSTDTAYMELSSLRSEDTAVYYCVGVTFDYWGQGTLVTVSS VL: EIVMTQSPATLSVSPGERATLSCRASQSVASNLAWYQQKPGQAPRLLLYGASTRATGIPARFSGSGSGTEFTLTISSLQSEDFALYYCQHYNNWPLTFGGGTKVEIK , is the recorded kd below the cut-off of 0.001 s⁻¹? 0 (no)

is_below(kd, 0.001 s⁻¹) for H1H6800P: fully human anti-PRLR antibody, human IgG1 Fc; HCVR/LCVR SEQ ID NOs 194/202 (antibody, V domains shown) VH: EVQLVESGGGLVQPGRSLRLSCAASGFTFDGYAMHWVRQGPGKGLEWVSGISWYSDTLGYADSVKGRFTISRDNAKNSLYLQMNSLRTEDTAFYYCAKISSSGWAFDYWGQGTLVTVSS VL: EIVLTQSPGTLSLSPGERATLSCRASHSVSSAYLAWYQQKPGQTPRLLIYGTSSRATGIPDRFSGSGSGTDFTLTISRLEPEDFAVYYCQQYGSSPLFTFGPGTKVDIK ? 0 (no)

Strictly below 0.001 s⁻¹: is that where kd of H1H6782P: fully human anti-PRLR antibody, non-blocking; HCVR/LCVR SEQ ID NOs 66/74 (antibody, V domains shown) VH: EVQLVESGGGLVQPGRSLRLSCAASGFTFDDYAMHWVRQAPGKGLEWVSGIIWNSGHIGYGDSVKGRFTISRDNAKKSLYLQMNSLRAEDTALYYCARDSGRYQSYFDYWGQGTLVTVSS VL: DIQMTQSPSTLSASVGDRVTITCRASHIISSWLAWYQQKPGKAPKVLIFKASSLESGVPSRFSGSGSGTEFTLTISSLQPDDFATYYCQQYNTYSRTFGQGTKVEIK sits? 1 (yes)

Ref: patent US10925971B2
